All figures here come from patent US20220363763A1.

Assayed Target: T1, human PD-L1-Fc protein (human, UniProt Q9NZQ7 19-239)
T1 construct: Coated on ELISA plates; also called huPD-L1; not shown: Fc part
T1 sequence (Q9NZQ7 19-239 limits assumed): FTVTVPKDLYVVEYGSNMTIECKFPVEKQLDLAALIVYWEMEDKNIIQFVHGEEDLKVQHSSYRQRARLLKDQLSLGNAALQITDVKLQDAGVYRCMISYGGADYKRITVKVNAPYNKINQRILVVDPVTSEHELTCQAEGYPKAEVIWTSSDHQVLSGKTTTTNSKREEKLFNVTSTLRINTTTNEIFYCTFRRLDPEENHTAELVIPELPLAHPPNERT
Method Summary: ELISA on coated human PD-L1-Fc; EC50 table has no unit, x axis Ab(nM)
Assignment: determine reported EC50 for the given binders.
One number for each entry, in nM.

Observe how each entry below is paired with its result.
{"columns": ["Binder", "EC50 / nM"],
 "data": [
  ["Hu1210-13 (antibody, V domains shown, Hu1210 VH.3 x Vk.1; human gamma 1 / kappa constant domains) VH: EVQLLESGGGLVQPGGSLRLSCAASGFTFSSYDMSWVRQAPGKGLEWVSTISDGGGYIYYSDSVKGRFTISRDNSKNTLYLQMNSLRAEDTAVYYCAREFGKRYALDYWGQGTTVTVSS VL: DIQMTQSPSSLSASVGDRVTITCKASQDVTPAVAWYQQKPGKAPKLLIYSTSSRYTGVPSRFSGSGSGTDFTFTISSLQPEDIATYYCQQHYTTPLTFGQGTKLEIK", 0.187],
  ["H1210 chimera (antibody, V domains shown, also called chimeric antibody) VH: EVKLVESGGDLVKPGGSLKLSCAASGFTFSSYDMSWVRQTPEKSLEWVATISDGGGYIYYSDSVKGRFTISRDNAKNNLYLQMSSLRSEDTALYICAREFGKRYALDYWGQGTSVTVSS VL: DIVMTQSHKFMSTSVGDRVSISCKASQDVTPAVAWYQQKPGQSPKLLIYSTSSRYTGVPDRFTGSGSGTDFTFTISSVQAEDLAVYYCQQHYTTPLTFGAGTKLELK", 0.139],
  ["Hu1210-15 (antibody, V domains shown, Hu1210 VH.4 x Vk.1; human gamma 1 / kappa constant domains) VH: EVQLVESGGGLVQPGGSLRLSCAASGFTFSSYDMSWVRQAPGKGLEWVSTISDGGGYIYYSDSVKGRFTISRDNAKNSLYLQMNSLRDEDTAVYYCAREFGKRYALDYWGQGTTVTVSS VL: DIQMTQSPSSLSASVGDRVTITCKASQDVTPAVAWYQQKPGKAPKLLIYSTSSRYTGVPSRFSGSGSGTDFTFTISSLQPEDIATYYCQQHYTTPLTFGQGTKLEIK", 0.187]
]}

Would you mind giving EC50 for every binder in the list below?
1. Hu1210-14 (antibody, V domains shown, Hu1210 VH.3a x Vk.1; human gamma 1 / kappa constant domains) VH: EVQLLESGGGLVQPGGSLRLSCAASGFTFSSYDMSWVRQAPGKSLEWVATISDGGGYIYYSDSVKGRFTISRDNSKNTLYLQMNSLRAEDTAVYICAREFGKRYALDYWGQGTTVTVSS VL: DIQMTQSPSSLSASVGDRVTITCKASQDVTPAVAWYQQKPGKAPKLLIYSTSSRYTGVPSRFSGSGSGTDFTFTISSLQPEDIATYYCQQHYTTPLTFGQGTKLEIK
2. Hu1210-16 (antibody, V domains shown, Hu1210 VH.4a x Vk.1; human gamma 1 / kappa constant domains) VH: EVQLVESGGGLVQPGGSLRLSCAASGFTFSSYDMSWVRQAPGKGLEWVATISDGGGYIYYSDSVKGRFTISRDNAKNSLYLQMNSLRDEDTAVYYCAREFGKRYALDYWGQGTTVTVSS VL: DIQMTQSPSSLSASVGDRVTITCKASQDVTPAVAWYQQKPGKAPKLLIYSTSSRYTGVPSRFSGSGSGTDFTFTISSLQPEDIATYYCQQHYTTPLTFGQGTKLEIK

Resp:
0.163
0.179
